Hey, just so you know, these numbers are from patent US20230000936A1.

molecular target: CHRM2 (Homo sapiens); assay: GPCR reactivity screen, PathHunter β-Arrestin, agonist assay CHRM2; type: cell-based; set-up: concentration or dose not given beside the values; conditions: agonist mode; control acetylcholine
Sequence (P08172 whole entry): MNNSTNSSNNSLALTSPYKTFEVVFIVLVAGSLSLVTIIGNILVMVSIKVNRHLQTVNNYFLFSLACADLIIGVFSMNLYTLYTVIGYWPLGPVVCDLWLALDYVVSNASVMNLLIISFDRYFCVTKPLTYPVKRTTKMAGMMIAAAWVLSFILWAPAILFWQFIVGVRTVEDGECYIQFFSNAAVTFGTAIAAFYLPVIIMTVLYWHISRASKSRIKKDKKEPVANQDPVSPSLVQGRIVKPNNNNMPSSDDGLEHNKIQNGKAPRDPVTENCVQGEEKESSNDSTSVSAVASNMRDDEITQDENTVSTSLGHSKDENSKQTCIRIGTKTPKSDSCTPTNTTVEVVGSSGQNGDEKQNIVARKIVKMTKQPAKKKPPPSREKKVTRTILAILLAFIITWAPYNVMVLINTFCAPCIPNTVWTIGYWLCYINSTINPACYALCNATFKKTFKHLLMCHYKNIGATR
// values below are reported CHRM2 (Agonist) percent activity
Your answer should be a plain number; it is taken to be in %.

Solved entries:
1. C=C(C)[C@@H]1CCC(C)=C[C@H]1c1c(O)cc(CC)cc1O	1
2. CCCCCc1cc(O)c2c(c1)OC(C)(CCC=C(C)C)C=C2 (stereo not shown)	12
3. CCCCCc1cc(O)c2c(c1)OC(C)(C)c1ccc(C)cc1-2	0
4. CCCCCc1cc2c(c(O)c1C(=O)O)C1C3C(CCC3(C)O2)C1(C)C (stereo not shown)	−4
5. CCCCCc1cc(O)c2c(c1)OC1(C)CCC3C1C2C3(C)C (stereo not shown)	13

Query: CHRM2 (Agonist) percent activity for C=C(C)[C@@H]1CCC(C)=C[C@H]1c1c(O)cc(CCC)cc1O ?
Reply: 3

Query: Item C=C(C)[C@@H]1CCC(C)=C[C@H]1c1c(O)cc(CCC)c(C(=O)O)c1O has what recorded CHRM2 (Agonist) percent activity?
Reply: 2
